Biological target: Aminopeptidase N (Homo sapiens, UniProt P15144)
Sequence (P15144 whole entry): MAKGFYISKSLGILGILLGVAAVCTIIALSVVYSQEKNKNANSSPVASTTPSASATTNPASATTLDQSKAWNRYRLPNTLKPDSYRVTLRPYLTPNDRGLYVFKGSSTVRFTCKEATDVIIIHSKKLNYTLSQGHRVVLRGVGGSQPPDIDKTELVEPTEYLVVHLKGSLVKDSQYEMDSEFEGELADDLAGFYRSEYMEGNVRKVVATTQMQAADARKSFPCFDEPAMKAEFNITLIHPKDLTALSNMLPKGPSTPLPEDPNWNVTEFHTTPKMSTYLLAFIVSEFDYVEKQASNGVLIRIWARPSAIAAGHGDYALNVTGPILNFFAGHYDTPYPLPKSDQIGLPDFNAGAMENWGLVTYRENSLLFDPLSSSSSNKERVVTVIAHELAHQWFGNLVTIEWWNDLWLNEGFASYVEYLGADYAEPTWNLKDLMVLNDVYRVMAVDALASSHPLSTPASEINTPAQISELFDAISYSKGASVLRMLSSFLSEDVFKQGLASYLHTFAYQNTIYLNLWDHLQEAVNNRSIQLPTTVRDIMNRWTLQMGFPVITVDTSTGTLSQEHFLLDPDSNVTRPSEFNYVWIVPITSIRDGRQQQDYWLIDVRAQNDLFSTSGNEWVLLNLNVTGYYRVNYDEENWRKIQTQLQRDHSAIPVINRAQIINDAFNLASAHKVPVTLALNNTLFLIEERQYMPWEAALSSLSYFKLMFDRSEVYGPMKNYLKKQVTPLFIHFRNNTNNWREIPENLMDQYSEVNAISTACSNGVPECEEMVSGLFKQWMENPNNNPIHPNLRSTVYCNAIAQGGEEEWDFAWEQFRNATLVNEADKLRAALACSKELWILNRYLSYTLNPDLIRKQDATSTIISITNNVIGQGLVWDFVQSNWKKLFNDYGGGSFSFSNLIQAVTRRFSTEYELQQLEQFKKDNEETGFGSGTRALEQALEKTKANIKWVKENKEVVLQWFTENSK
Structures can show the parent of a compound that is named as a salt.

[
  {
    "Compound": "NC1CCCCCC1=O (stereo unspecified) [2-AMINOCYCLOHEPTANONE HYDROCHLORIDE]",
    "Units": "µM",
    "IC50": 310
  }
]

====

List of pIC50 tested on Cytosol aminopeptidase (Bos taurus, UniProt P00727).
Sequence (P00727 whole entry): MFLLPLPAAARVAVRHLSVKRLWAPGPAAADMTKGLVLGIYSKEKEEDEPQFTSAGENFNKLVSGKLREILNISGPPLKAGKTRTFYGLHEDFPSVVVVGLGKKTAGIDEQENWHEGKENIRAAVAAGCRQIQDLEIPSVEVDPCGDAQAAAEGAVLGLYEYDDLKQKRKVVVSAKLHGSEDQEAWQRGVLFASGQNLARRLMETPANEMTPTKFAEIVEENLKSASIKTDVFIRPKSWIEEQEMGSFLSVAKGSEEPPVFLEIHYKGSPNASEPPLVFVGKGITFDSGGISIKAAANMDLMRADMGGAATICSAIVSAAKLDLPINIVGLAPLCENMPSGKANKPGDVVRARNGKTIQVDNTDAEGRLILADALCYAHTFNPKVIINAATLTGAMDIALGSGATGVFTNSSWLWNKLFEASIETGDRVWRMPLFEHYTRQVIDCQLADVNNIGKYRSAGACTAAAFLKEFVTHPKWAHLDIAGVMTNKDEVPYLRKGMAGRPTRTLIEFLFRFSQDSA
pIC50: −log10 of the molar value. Structures can show the parent of a compound that is named as a salt.
Metric Name: pIC50

[
  {
    "Molecule": "NC1C(=O)Cc2ccccc21 (stereo not given)",
    "Measured": "< 3.00"
  },
  {
    "Molecule": "NC1CCCCCC1=O (stereo not given) [2-AMINOCYCLOHEPTANONE HYDROCHLORIDE]",
    "Measured": "< 4.00"
  },
  {
    "Molecule": "N[C@H]1CCc2ccccc2C[C@H]1O (relative stereo)",
    "Measured": "< 3.00"
  },
  {
    "Molecule": "NC1CCc2ccccc2C/C1=N/O (stereo not given)",
    "Measured": "< 3.00"
  },
  {
    "Molecule": "Cl.NC1CCc2ccccc2CC1=O (stereo not given)",
    "Measured": "< 3.00"
  }
]
